The measurements presented in this section are drawn from the supplement of paper PMC5998384.

Each entry below lists one item and its recorded melting temperature value.
System: HeLa Kyoto;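 note: HeLa Kyoto cells synchronized by double thymidine or nocodazole block, proteins quantified by TMT10plex mass spectrometry, three independent biological replicates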
Assay: melting temperature (median over replicates), in situ; higher = more thermally stable
Settings: cell cycle stage: mitosis
Note: unit °C is implicit; provide only the numeric part.

Below are worked cases with known answers.
{"Macromolecule Sequence": "MNNLSFSELCCLFCCPPCPGKIASKLAFLPPDPTYTLMCDESGSRWTLHLSERADWQYSSREKDAIECFMTRTSKGNRIACMFVRCSPNAKYTLLFSHGNAVDLGQMSSFYIGLGSRINCNIFSYDYSGYGASSGKPTEKNLYADIEAAWLALRTRYGIRPENVIIYGQSIGTVPSVDLAARYESAAVILHSPLTSGMRVAFPDTKKTYCFDAFPNIDKISKITSPVLIIHGTEDEVIDFSHGLALFERCQRPVEPLWVEGAGHNDVELYGQYLERLKQFVSQELVNL [ABHD17B]", "Units Label": "°C", "melting temperature": 54.3}
{"Macromolecule Sequence": "MDVFLMIRRHKTTIFTDAKESSTVFELKRIVEGILKRPPDEQRLYKDDQLLDDGKTLGECGFTSQTARPQAPATVGLAFRADDTFEALCIEPFSSPPELPDVMKPQDSGSSANEQAVQ [TCEB2]", "Units Label": "°C", "melting temperature": 51.8}

// below: melting temperature requested for another sequence
Task: Look at this sequence and give its reported melting temperature. MDQEPVGGVERGEAVAASGAAAAAAFGESAGQMSNERGFENVELGVIGKKKKVPRRVIHFVSGETMEEYSTDEDEVDGLEKKDVLPTVDPTKLTWGPYLWFYMLRAATSTLSVCDFLGEKIASVLGISTPKYQYAIDEYYRMKKEEEEEEEENRMSEEAEKQYQQNKLQTDSIVQTDQPETVISSSFVNVNFEMEGDSEVIMESKQNPVSVPP [FAM177A1]
Result: 56.5
